test system: COLO 205 colon; assay: NCI tumour cell line growth inhibition, 48 h
# TGI annotations
Please state the figure in µM; there is no need to write the unit.

                                   molecule  readout_number
0  O=C(Nc1ccccc1)NS(=O)(=O)c1ccc(-n2nc3c(c2-c2ccc(Cl)cc2)Cc2ccccc2-3)cc1            64.9
1  CCOC(=O)C(C(=S)Nc1ccccc1)c1nn2c(=O)cc(C)nc2s1 (configuration not stated)            39.5
2  CCNC(=O)c1cc2c(-c3cc(C(C)(C)O)ccc3Oc3c(C)cc(F)cc3C)cn(C)c(=O)c2[nH]1            2.84

Give its TGI value. Item: `COc1cc(/C=C/C(=O)c2ccc(NC(=O)CN3CCN(c4cc5c(cc4F)c(=O)c(C(=O)O)cn5C4CC4)CC3)cc2)cc(OC)c1OC` 8.11

Give its TGI value. Item: `O=[N+]([O-])c1c(Br)sc(Br)c1[N+](=O)[O-]` 3.38

Give its TGI value. Item: `Cc1c(COc2cc(OCc3cccc(C#N)c3)c(CN3C[C@H](O)C[C@@H]3C(=O)O)cc2Cl)cccc1-c1ccc2c(c1)OCCO2` 39.7

Give its TGI value. Item: `Cc1ccc(O)c(-c2cc(-c3cccc(Cl)c3)c(C#N)c(N)n2)c1` 32.3

Give its TGI value. Item: `CO/N=C(\C)COc1ccc2c(=O)c(-c3ccccc3)coc2c1` 32.4

Give its TGI value. Item: `COc1cc(/C=C/C(=O)c2c(C)nc3ccccc3c2C)ccc1OCCCOc1cc2c(cc1OC)C(=O)N1CCC[C@H]1C=N2` 0.0453

Give its TGI value. Item: `Cc1cc(Cl)ccc1NC(=O)c1cc2ccccc2cc1O` 30.5

Give its TGI value. Item: `CN(C)c1ccccc1CN1CCCN(Cc2ccccc2N(C)C)C1c1ccncc1` 30.3

Give its TGI value. Item: `O=C1CCCC/C1=C\c1ccc(Br)cc1` 32.8

Give its TGI value. Item: `C=C1CC/C=C(\C)C(=O)C[C@@H]2[C@@H]1CC2(C)C` 3.87

Give its TGI value. Item: `CN1CCC(CN2c3ccccc3Sc3ccccc32)CC1` 27.1

Give its TGI value. Item: CC(=O)O[C@@H]1C2=C(C)C=C(O2)[C@H]2O[C@]2(C)C[C@H]2C=C(C(=O)O2)[C@H](OC(C)=O)CC1[C@@]1(C)CO1 (some centres not stated) 27.1

Give its TGI value. Item: `O=C(Cc1nc2ccccc2s1)Nc1cccc(C(F)(F)F)c1` 30.7

Give its TGI value. Item: `COc1ccc(Nc2c3ccccc3nc3ccccc23)cc1` 1.85

Give its TGI value. Item: Cc1cc(C)nc(SC(C)C(=O)N/N=C/c2ccc(OCc3ccccc3)cc2)n1 (configuration not stated) 91.6

Give its TGI value. Item: CC(=Nc1ccccc1)C1=C(O)C(Cc2ccccc2)NC1=O (configuration not stated) 0.0824

Give its TGI value. Item: `COC(=O)c1ccc(C)cc1/C=C1\Cc2ccc(C)cc2C1=O` 25.1
